Tested on: NADH oxidase, bovine heart mitochondrial complex (I, III, IV)
Test: NADH oxidase inhibition assay, submitochondrial particles
Assay type: biochemical
Study Conditions: 1 μM, percentage of control
Property: NADH oxidase activity (%)

Example compounds with recorded NADH oxidase activity (%):
| Compound | Unit Annotation | Measurement |
| --- | --- | --- |
| CCCCCc1nc(N(C)C)nc(C)c1O [drawing 132] | % | 85 |
| Cc1nc2c(c(CC[C@](C)(O)CCC[C@H](C)CCC[C@H](C)CCCC(C)C)c1O)CCN2C [drawing 136] | % | 50 |
| Cc1nc(N(C)C)nc(CCCCCCCCCCO)c1O [drawing 134] | % | 50 |

[A] COc1nc(N(C)C)nc(CCCCCCCCCCO)c1O [drawing 138]
[B] CCCCCCCCCCc1nc(N2C(C)CCC2C)nc(C)c1O (centres unmarked)
(Q) Between A and B , whose measured NADH oxidase activity (%) reads higher? Give the chosen item's label as your response.
(A) A
(A: 62.5%, B: 40%)
